- Target Under Test: RSV-F protein of RSV B9320 virus (as carried by the live virus in the neutralisation assay) (human respiratory syncytial virus, …)
- Protocol: cell-based or functional assay
Readout: Absolute IC50, neutralizing RSV B9320 (HEp-2 cells, indirect ELISA)

# input binder: R18-22D7QH (antibody, human IgG1, kappa, V domains shown, also called chimeric antibody of R18-22D7) VH: EVKLLESGGGLVQPGGSLKLSCAASGFDFSRYWMSWVRQAPGKGLEWIGEINPDSSTINYTPSLKDKFIISRDNAKNTLYLQMSKVRSEDTALYYCARRGGISYAMDYWGQGTSVTVSS VL: DIVITQDELSNPVTSGESVSISCRSSKSLLYKDGKTYLNWFLQRPGQSPQLLIYLMSTRASGVSDRFSGSGSGTDFTLEISRVKAEDVGVYYCQQLVEYPRTFGGGTKLEIKR ; wanted: its Absolute IC50, neutralizing RSV B9320 (HEp-2 cells, indirect ELISA)
0.00893 µg/mL

Repeat for the following binder: R10-10B2QH (antibody, human IgG1, kappa, V domains shown, also called chimeric antibody of R10-10B2) VH: QVQLEESGAELVRSGASVKLSCTASGFNIKDYYIHWVKQRPEQGLEWIGWNDPENGDTEYAPKFQGKATMTADTSSNTVYLQLSSLTSEDSAVYFCKSFDSYLEYWGQGTSVTVSS VL: DIVMTQTTLSLPVNLGDQASISCRSSQSLVHTDGNTFLEWYLQRPGQSPKLLIYKVSIRFSGVPDRFSGSGSGTDFTLKISRVETEDLGVYYCFQGSHVPRTFGGGTKLEIKR
0.0915 µg/mL

// next record R10-6A11QH (antibody, human IgG1, kappa, V domains shown, also called chimeric antibody of R10-6A11) VH: QVKLEESGPGILQPSQTLSLTCSFSGFSLSTSGMGVSWIRQPSGKGLEWLAHIYWDDDKNYNPSLKSRLTISKDTSRNQVFLKITSVDTADTATYYCARKIYYDYDYALDYWGQGTSVTVSS VL: DIVMTQAAFSNPVTLGTSASISCRSSKSLLHSNGITYLCWFLQKPGQSPQLLIYQMSNLASGVPDRFSGSGSGTDFTLRISRVEAEDVGVYYCAQNLELWTFGGGTKLEIKR
0.266 µg/mL
